Organism: Rattus norvegicus
Assay: Compound was tested for histamine release at a concentration of 100 ug/mL
Type: functional
Where a SMILES comes first, the peptide text is derived from it. [ ]: non-standard residue; d: D form. d(hArg(Et2)) = CCN=C(NCC)NCCCC[C@@H](N)C(=O)O; hArg(Et2) = CCN=C(NCC)NCCCC[C@H](N)C(=O)O; dPhe(4-Cl) = N[C@H](Cc1ccc(Cl)cc1)C(=O)O; d2Nal = N[C@H](Cc1ccc2ccccc2c1)C(=O)O; d3Pal = N[C@H](Cc1cccnc1)C(=O)O
Would you kindly list HR for each of these compounds?
Numeric answer only, unit % assumed.

QUERY: Any idea what HR was measured for CC(=O)Nc1ccc(C[C@@H](NC(=O)[C@H](Cc2ccc(NC(=O)[C@@H]3CC(=O)NC(=O)N3)cc2)N(C)C(=O)[C@H](CO)NC(=O)[C@@H](Cc2cccnc2)NC(=O)[C@@H](Cc2ccc(Cl)cc2)NC(=O)[C@@H](Cc2ccc3ccccc3c2)NC(C)=O)C(=O)N[C@@H](CC(C)C)C(=O)N[C@@H](CCCCNC(C)C)C(=O)N2CCC[C@H]2C(=O)N[C@H](C)C(N)=O)cc1 ?
RESULT: 124

QUERY: What does the data say about its HR? Entry: CC(=O)Nc1ccc(C[C@H](NC(=O)[C@H](CO)NC(=O)[C@@H](Cc2cccnc2)NC(=O)[C@@H](Cc2ccc(Cl)cc2)NC(=O)[C@@H](Cc2ccc3ccccc3c2)NC(C)=O)C(=O)N[C@H](Cc2ccc(NC(=O)[C@@H]3CC(=O)NC(=O)N3)cc2)C(=O)N[C@@H](CC(C)C)C(=O)N[C@@H](CCCCNC(C)C)C(=O)N2CCC[C@H]2C(=O)N[C@H](C)C(N)=O)cc1
RESULT: 64

QUERY: Item CC(=O)N[C@H](Cc1ccc2ccccc2c1)C(=O)N[C@H](Cc1ccc(Cl)cc1)C(=O)N[C@H](Cc1cccnc1)C(=O)N[C@@H](CO)C(=O)N[C@@H](Cc1ccc(NC(=O)[C@@H]2CC(=O)NC(=O)N2)cc1)C(=O)N[C@H](Cc1ccc(NC(=O)[C@@H]2CC(=O)NC(=O)N2)cc1)C(=O)N[C@@H](CC(C)C)C(=O)N[C@@H](CCCCNC(C)C)C(=O)N1CCC[C@H]1C(=O)N[C@H](C)C(N)=O has what recorded HR?
RESULT: 11

QUERY: Can you look up the measured HR of CC(=O)N[C@H](Cc1ccc2ccccc2c1)C(=O)N[C@H](Cc1ccc(Cl)cc1)C(=O)N[C@H](Cc1cccnc1)C(=O)N[C@@H](CO)C(=O)N[C@@H](Cc1ccc(NC(=O)[C@@H]2CC(=O)NC(=O)N2)cc1)C(=O)N[C@H](Cc1ccc(CNC(N)=O)cc1)C(=O)N[C@@H](CC(C)C)C(=O)N[C@@H](CCCCNC(C)C)C(=O)N1CCC[C@H]1C(=O)N[C@H](C)C(N)=O for me?
RESULT: 48

QUERY: So what's the measured HR for this one? CC(=O)N[C@H](Cc1ccc2ccccc2c1)C(=O)N[C@H](Cc1ccc(Cl)cc1)C(=O)N[C@H](Cc1cccnc1)C(=O)N[C@@H](CO)C(=O)N[C@@H](Cc1ccc(NC(=O)[C@H]2CC(=O)NC(=O)N2)cc1)C(=O)N[C@H](Cc1ccc(NC(N)=O)cc1)C(=O)N[C@@H](CC(C)C)C(=O)N[C@@H](CCCCNC(C)C)C(=O)N1CCC[C@H]1C(=O)N[C@H](C)C(N)=O
RESULT: 54

QUERY: Can you look up the measured HR of CC(=O)O.CC(=O)O.CC/N=C(\NCC)NCCCC[C@H](NC(=O)[C@H](CC(C)C)NC(=O)[C@@H](CCCCN/C(=N/CC)NCC)NC(=O)[C@H](Cc1ccc(O)cc1)NC(=O)[C@H](CO)NC(=O)[C@@H](Cc1cccnc1)NC(=O)[C@@H](Cc1ccc(Cl)cc1)NC(=O)[C@@H](Cc1ccc2ccccc2c1)NC(C)=O)C(=O)N1CCC[C@H]1C(=O)N[C@H](C)C(N)=O [GANIRELIX ACETATE] (Ac-[d2Nal][dPhe(4-Cl)][d3Pal]SY[d(hArg(Et2))]L[hArg(Et2)]P[dA]-NH2) for me?
RESULT: 62

QUERY: Need HR of CC(=O)N[C@H](Cc1ccc2ccccc2c1)C(=O)N[C@H](Cc1ccc(Cl)cc1)C(=O)N[C@H](Cc1cccnc1)C(=O)N[C@@H](CO)C(=O)N[C@@H](Cc1ccc(NC(=O)[C@@H]2CC(=O)NC(=O)N2)cc1)C(=O)N[C@H](Cc1cccnc1)C(=O)N[C@@H](CC(C)C)C(=O)N[C@@H](CCCCNC(C)C)C(=O)N1CCC[C@H]1C(=O)N[C@H](C)C(N)=O , thanks.
RESULT: 68

QUERY: Could you tell me which HR is on file for CC(=O)Nc1ccc(C[C@@H](NC(=O)[C@H](Cc2ccc(NC(=O)[C@@H]3CC(=O)NC(=O)N3)cc2)NC(=O)[C@H](CO)NC(=O)[C@@H](Cc2cccnc2)NC(=O)[C@@H](Cc2ccc(Cl)cc2)NC(=O)[C@@H](Cc2ccc3ccccc3c2)NC(C)=O)C(=O)N[C@@H](CC(C)C)C(=O)N[C@@H](CCCCNC(C)C)C(=O)N2CCC[C@H]2C(=O)N[C@H](C)C(N)=O)cc1 ?
RESULT: 54

Source of measurements: ChEMBL document CHEMBL1134340
